Numbers sourced from PubChem BioAssay.

Biological target: Neurogenic locus notch homolog protein 2 (Homo sapiens)
Assay: small molecules binding Notch2 protein – biochemical, small-molecule microarray, 635 nm fluorescence, stem cell growth factors, primary screen (AID 1073)
Details: higher = more signal
quantity.name: composite z-score
Number, no unit, nothing else.

- COc1c(C)cc(-c2cc3c(c(-c4ccccc4)n2)[Si](C(C)C)(C(C)C)O[C@H]3c2ccccc2)cc1C: 0.234
- CCCNC(=O)[C@@]1(c2ccc([N+](=O)[O-])cc2)CC(=O)N(CC23CC4CC(CC(C4)C2)C3)[C@@H]1c1ccc(CO)cc1I: 0.906
- C=CCC(OC(C)=O)[C@@H]1[C@@H](N(Cc2ccc(-c3ccccc3)cc2)C(=O)c2ccc(C)cc2)c2cc(OCCCO)ccc2N1C(=O)c1ccc2ccccc2n1 (some centres undefined): 0.0291

IN: Endpoint output: composite z-score of CC1CC/C=C\[C@H]2OC34C=CCN(c5ccc6ccccc6c5)C(=O)[C@H]3N(CCCCCO)C(=O)[C@@H]4C2C(=O)O1 (some centres undefined) . Value?
OUT: -1.04

IN: Endpoint output: composite z-score of COCCOC(=O)N1C(=O)[C@@]2(c3cc(C#CCC(C(=O)OC)C(=O)OC)ccc31)[C@H](c1ccc(OCCO)cc1)N1[C@H](c3ccccc3)[C@H](c3ccccc3)OC(=O)[C@H]1[C@@H]2C(=O)NC[C@H](O)c1ccccc1 . Value?
OUT: 1.45

IN: Endpoint output: composite z-score of C=C(C(=O)CC[C@@H](OC(C)=O)c1ccc(OCCO)cc1)C(C)C . Value?
OUT: 0.146

IN: Endpoint output: composite z-score of CC1(C)C(=O)C(c2ccccc2)=C2CN3C(=O)N(CCc4ccccc4)C(=O)C3(Cc3ccccc3)C=C21 (centres undefined) . Value?
OUT: 1.63

IN: Endpoint output: composite z-score of O=C1O[C@H](c2ccccc2)[C@H](c2ccccc2)N2[C@H]1[C@@H](C(=O)Nc1nc3ccccc3s1)[C@]1(C(=O)Nc3ccc(C#CC4=CCCCC4)cc31)[C@H]2c1ccc(OCCO)cc1 . Value?
OUT: 0.6

IN: Endpoint output: composite z-score of C=CC[C@@]1(C(=O)OC)N=C(c2ccc(OCCCO)cc2)O[C@@H]1c1ccccc1CN=[N+]=[N-] . Value?
OUT: 0.406

IN: Endpoint output: composite z-score of C=CCN1Cc2ccccc2C[C@@]2(COC(c3ccc(OCCCO)cc3)=N2)C1=O . Value?
OUT: 1.19

IN: Endpoint output: composite z-score of O=C1O[C@H](c2ccccc2)[C@H](c2ccccc2)N2[C@H]1[C@@H](C(=O)NC[C@H](O)c1ccccc1)[C@]1(C(=O)Nc3ccc(C#CC4=CCCCC4)cc31)[C@H]2c1ccc(O)cc1 . Value?
OUT: 0.671

IN: Endpoint output: composite z-score of CC(C)CNC(=O)[C@@]1(C)c2ccccc2C(=O)N(C(C)C)[C@H]1c1ccc(CO)cc1 . Value?
OUT: -1.78

IN: Endpoint output: composite z-score of Cc1ccc(N2C(=O)c3ccccc3[C@@H](C(=O)NCC(C)C)[C@@H]2c2ccc(CO)cc2)nc1 . Value?
OUT: -1.07

IN: Endpoint output: composite z-score of CCCCN1CC=CC23O[C@@H]4/C=C\CCCOC(=O)C4[C@H]2C(=O)N(C(C)CO)[C@@H]3C1=O (some centres undefined) . Value?
OUT: -0.327
